B1: tRNA (parent)
chain: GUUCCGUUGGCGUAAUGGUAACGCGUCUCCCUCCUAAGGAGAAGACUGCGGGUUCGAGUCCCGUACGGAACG

Variants of: B1
Assay: yeast fitness relative to wild type (ratio to wild type); higher = fitter; tRNA-Arg(CCU), competitive growth, 37 C, YPD
Fewer inactive variants are shown than the library holds.
Listed here are variants together with their documented yeast fitness.

{"VARIANT_LABEL": "A43C C61U", "yeast fitness": 0.956}
{"VARIANT_LABEL": "U16C A21U", "yeast fitness": 0.756}
{"VARIANT_LABEL": "A45U C62U C66U", "yeast fitness": 0.704}
{"VARIANT_LABEL": "U2C G23C C31G C33U A42G G67U", "yeast fitness": "≤ 0.5"}
{"VARIANT_LABEL": "A15G G17A C49U", "yeast fitness": 0.687}
{"VARIANT_LABEL": "U3C A20U C30G C33U G58C", "yeast fitness": "≤ 0.5"}
{"VARIANT_LABEL": "A36C A37U G50C C66U", "yeast fitness": 0.56}
{"VARIANT_LABEL": "U16C C55A A57U", "yeast fitness": "≤ 0.5"}
{"VARIANT_LABEL": "A15U C24G A42C", "yeast fitness": "≤ 0.5"}
{"VARIANT_LABEL": "C5A U16C C30A A45U G50C G63A", "yeast fitness": "≤ 0.5"}
{"VARIANT_LABEL": "G17C A21G U26G", "yeast fitness": "≤ 0.5"}
{"VARIANT_LABEL": "A15U C27A A65C G67A A69C", "yeast fitness": "≤ 0.5"}
{"VARIANT_LABEL": "G9C U19C A40U A57U", "yeast fitness": "≤ 0.5"}
{"VARIANT_LABEL": "C30U A37C C49U C66U", "yeast fitness": "≤ 0.5"}
{"VARIANT_LABEL": "C24U G25C C30G G50C G56A C66U", "yeast fitness": "≤ 0.5"}
{"VARIANT_LABEL": "G12A C34A G52C C60A", "yeast fitness": "≤ 0.5"}
{"VARIANT_LABEL": "G9C U19C C31A C55U", "yeast fitness": 0.641}
{"VARIANT_LABEL": "U35C A36U G38A C46A U54C", "yeast fitness": "≤ 0.5"}
{"VARIANT_LABEL": "U2A A20C C33A C55U", "yeast fitness": "≤ 0.5"}
{"VARIANT_LABEL": "C22G A36C G48A C61A C66U", "yeast fitness": "≤ 0.5"}
{"VARIANT_LABEL": "C5A U26A C27G C30G A36U G38C C46U C49G A65U", "yeast fitness": "≤ 0.5"}
{"VARIANT_LABEL": "C27G A37C A42G G48C U59C", "yeast fitness": 0.533}
{"VARIANT_LABEL": "U8A A42U", "yeast fitness": 0.833}
{"VARIANT_LABEL": "U8C G67A", "yeast fitness": 0.85}
{"VARIANT_LABEL": "U32A A42U", "yeast fitness": 0.861}
{"VARIANT_LABEL": "A14U C27G A37U", "yeast fitness": "≤ 0.5"}
{"VARIANT_LABEL": "G12A G51C", "yeast fitness": 0.662}
{"VARIANT_LABEL": "A37C G39A C60G C66A", "yeast fitness": "≤ 0.5"}
{"VARIANT_LABEL": "A15U G23A C34A C49G A57G", "yeast fitness": 0.57}
{"VARIANT_LABEL": "A14U A15C", "yeast fitness": 0.681}
{"VARIANT_LABEL": "U2C U28A A43C A57C C62A", "yeast fitness": 0.572}
{"VARIANT_LABEL": "C11U C30U A65C", "yeast fitness": "≤ 0.5"}
{"VARIANT_LABEL": "A36U G68A", "yeast fitness": 0.642}
{"VARIANT_LABEL": "A14U C61G", "yeast fitness": "≤ 0.5"}
{"VARIANT_LABEL": "C11G G48A A69U", "yeast fitness": "≤ 0.5"}
{"VARIANT_LABEL": "C22A C30U A69C", "yeast fitness": "≤ 0.5"}
{"VARIANT_LABEL": "A15C C46U U64C A70G", "yeast fitness": "≤ 0.5"}
{"VARIANT_LABEL": "G17C C22G U26C U47A C66G", "yeast fitness": "≤ 0.5"}
{"VARIANT_LABEL": "A21U G52C A57G C61U", "yeast fitness": "≤ 0.5"}
{"VARIANT_LABEL": "U8C C29A C34G A36G A40C G41A U47A U64C", "yeast fitness": "≤ 0.5"}
{"VARIANT_LABEL": "A14U C46A C66U", "yeast fitness": "≤ 0.5"}
{"VARIANT_LABEL": "C46G C49A G68C A69G", "yeast fitness": "≤ 0.5"}
{"VARIANT_LABEL": "C4G C30U C55U", "yeast fitness": "≤ 0.5"}
{"VARIANT_LABEL": "U7A G9C A40C C62A", "yeast fitness": "≤ 0.5"}
{"VARIANT_LABEL": "C29U A37G C61G A69U", "yeast fitness": "≤ 0.5"}
{"VARIANT_LABEL": "U8C C30G C31G C66U", "yeast fitness": "≤ 0.5"}
